All values here come from patent US20040067927A1.

target: plasmepsin II (Plasmodium falciparum, UniProt P46925); assay: FRET assay for plasmepsin II; type: biochemical; conditions: pH 5, 37° C., 40 min, substrate 1 μM
Sequence (P46925 125-453): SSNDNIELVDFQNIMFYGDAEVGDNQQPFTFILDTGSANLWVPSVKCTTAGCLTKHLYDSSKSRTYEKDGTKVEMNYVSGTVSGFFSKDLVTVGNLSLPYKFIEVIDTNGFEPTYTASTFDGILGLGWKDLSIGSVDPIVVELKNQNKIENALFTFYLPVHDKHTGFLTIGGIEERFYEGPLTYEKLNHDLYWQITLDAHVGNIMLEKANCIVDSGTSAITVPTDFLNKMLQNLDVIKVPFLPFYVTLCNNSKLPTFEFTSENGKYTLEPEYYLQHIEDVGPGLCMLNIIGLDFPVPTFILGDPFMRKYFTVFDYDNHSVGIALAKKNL
Can you tell me IC50 for the items I'm about to list?
Mention the unit after the number when you answer.

Challenge: Kindly state the measured IC50 obtained for CCCCCc1ccc(C(=O)N(CCN(CCCC)CCCC)Cc2ccc(-c3ccc4c(c3)OCO4)cc2)cc1 with plasmepsin II (Plasmodium falciparum, UniProt P46925).
Response given: 57 nM

Challenge: # get_value(readout= IC50, system= plasmepsin II (Plasmodium falciparum, UniProt P46925)) for CCCCCc1ccc(C(=O)N(CCN(CCCC)CCCC)Cc2ccc(-c3ccccc3Cl)cc2)cc1
Response given: 659 nM

Challenge: Entry CCCCCc1ccc(C(=O)N(CCN(CCCC)CCCC)Cc2ccc(-c3ccc(CC(=O)OC)cc3)cc2)cc1 , system plasmepsin II (Plasmodium falciparum, UniProt P46925): what IC50 was measured?
Response given: 198 nM

* * *

target: plasmepsin II (Plasmodium falciparum); experiment: FRET assay for plasmepsin II; assay type: biochemical; details: pH 5, 37° C., 40 min, substrate 1 μM
Field: IC50. Provide a value for each of the molecules that follow.
Report the value in nM with no unit label.

Challenge: Quick check: IC50 of CCCCCc1ccc(CN(CCN(CCCC)CCCC)Cc2ccc(OCc3ccccc3)cc2)cc1 ?
Response given: 846

Challenge: Look up IC50: CCCCCc1ccc(C(=O)N(CCCN(CCCC)CCCC)Cc2ccc(-c3ccccc3)cc2)cc1
Response given: 834

Challenge: Which IC50 value is on record for CCCCCc1ccc(C(=O)N(CCN(CCCC)CCCC)Cc2ccc(Oc3ccccc3)cc2)cc1 ?
Response given: 469

Challenge: Suppose we examine the molecule CCCCCc1ccc(C(=O)N(CCN(CCCC)CCCC)Cc2ccc(-c3cccc(OC(F)(F)F)c3)cc2)cc1 ; what IC50 value has been reported?
Response given: 754

Challenge: Any idea what its IC50 is? The molecule is CCCCCc1ccc(CN(CCN(CCCC)CCCC)Cc2ccc(-c3ccc(C#N)cc3)cc2)cc1
Response given: 714

Challenge: Which IC50 value is on record for CCCCCc1ccc(C(=O)N(CCN(CCCC)CCCC)Cc2ccc(C(F)(F)F)cc2)cc1 ?
Response given: 596

Challenge: What measured IC50 goes with CCCCCc1ccc(C(=O)N(CCN(CCCC)CCCC)Cc2ccc(-c3ccc(OCCO)cc3)cc2)cc1 ?
Response given: 125

Challenge: Record request: IC50 value, item CCCCCc1ccc(C(=O)N(CCN(CCCC)CCCC)Cc2ccc(OCc3ccccc3)c(OCc3ccccc3)c2)cc1
Response given: 858

Challenge: Look at this molecule and give its reported IC50. CCCCCc1ccc(C(=O)N(CCN(CCCC)CCCC)Cc2ccc(-c3ccccc3)cc2)cc1
Response given: 252

Challenge: Find the recorded IC50 belonging to CCCCCc1ccc(C(=O)N(CCN(CCCC)CCCC)Cc2ccc(-c3ccccn3)cc2)cc1 and report it.
Response given: 380

Challenge: Any idea what IC50 was measured for CCCCCc1ccc(C(=O)N(CCN(CCCC)CCCC)Cc2ccc(OCCCC)cc2)cc1 ?
Response given: 325

Challenge: Quick check: IC50 of CCCCCc1ccc(C(=O)N(CCCN(CCCC)CCCC)Cc2ccc(OCc3ccccc3)cc2)cc1 ?
Response given: 691

Challenge: Query (molecule): CCCCCc1ccc(C(=O)N(CCN(CCCC)CCCC)Cc2ccc(-c3cncnc3)cc2)cc1 ; field requested: IC50
Response given: 351

Challenge: Entry under review: CCCCCc1ccc(C(=O)N(CCN(CCCC)CCCC)Cc2ccc(-c3ccccc3F)cc2)cc1 . Reported IC50?
Response given: 312

Challenge: IC50 for CCCCCc1ccc(C(=O)N(CCN(CCCC)CCCC)Cc2ccc(OCc3ccccc3)cc2)cc1 ?
Response given: 115

Challenge: So what does the record say about IC50 for CCCCCc1ccc(C(=O)N(CCN(CCO)CCO)Cc2ccc(OCC)cc2)cc1 ?
Response given: 8230
